- Test system: tail flick
- experimentalDetails: Mouse tail flick analgesic testing (TF)
- Assay type: in vivo, mice
- settings: Mus musculus; tail flick, mice
recordedMetric: ED50 (mg/kg)
A number alone suffices; assume mg/kg.

GET /values?readout=ED50&system=tail flick&item= CC(CCCc1ccccc1)Oc1cc(O)c2c(c1)OC(C)(C)[C@@H]1CC[C@@H](O)C[C@@H]21 (relative stereo) [OCH(CH3)(CH2)3C6 H5]
0.33

// next record CC(CCCc1ccccc1)c1cc(O)c2c(c1)OC(C)(C)[C@@H]1CC[C@@H](O)C[C@@H]21 (relative stereo) [CH(CH3)(CH2)3C6 H5]
0.32

// next record CC(CCc1ccccc1)Oc1cc(O)c2c(c1)OC(C)(C)[C@@H]1CC[C@@H](O)C[C@@H]21 (relative stereo) [OCH(CH3)(CH2)2C6 H5]
1.3

// next record CCCCCC(C)C(C)c1cc(O)c2c(c1)OC(C)(C)[C@@H]1CC[C@@H](O)C[C@@H]21 (relative stereo) [CH(CH3)CH(CH3)C5 H11, reference compound]
0.35

// next record CCCCCC(C)Oc1cc(O)c2c(c1)OC(C)(C)[C@@H]1CC[C@@H](O)C[C@@H]21 (relative stereo) [OCH(CH3)C5 H11]
0.46
